- testDetails: Confirmation screen for delayed death inhibitors of the malarial parasite plastid, 48 hour incubation; further: nearly all actives have a fitted effect of over 65% in size
- conditions: P. falciparum-infected erythrocytes, luciferase growth; series mostly up to 28.7 µM
Screen size: about 2,300 compounds; about 1,200 (52%) were called active. Roughly 34% stayed inconclusive and do not appear here. The call rests on the fitted dose curve; in most records, active means well fitted inhibition curve with a large enough effect; inconclusive means small, poorly fitted or top-dose-only effect, or effect the other way; inactive means no such curve, though single readings can be large or run the other way. The set was probably picked from earlier hits. The list shows a part of the results.
Respond using exactly one of the listed classes: yes (1) for active, no (0) for inactive

molecule	category
COc1ccc(-c2cn(-c3ccccc3)c3[n+]2CCS3)cc1	yes (1)
Cn1nnnc1Sc1ncnc2scc(-c3ccsc3)c12	yes (1)
O=S(=O)(c1cccs1)N1CCC(CO)(Cc2cccc(F)c2)CC1	no (0)

Prompt: What outcome does the record of this test show for Cn1nnnc1Sc1ncnc2scc(-c3ccc[nH]3)c12 ?
Response: yes (1)

Prompt: Try the molecule COc1ccc(/C=N/NC(=O)c2cc(-c3ccccc3)nc3ccccc23)cc1O
Response: no (0)

Prompt: Next molecule up: OC1(c2cccs2)CN(c2ccc(Cl)cc2)C2=[N+]1CCCC2 (stereo not drawn)
Response: yes (1)
